Molecular target: SHP2-C SH2;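 also: peptide library displayed on the E. coli surface as eCPX fusions, selected cells deep-sequenced, score is each peptide's frequency after selection divided by its frequency in the input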
Test: SH2 binding enrichment of the phosphorylated peptide, bacterial display (enrichment ratio); higher = better substrate or ligand; peptides without Tyr show the background
Examples of sequences with documented SH2 binding enrichment follow.
Response field accepts a number only; no unit should be typed.

Use the examples below as a reference point.
[[record]]
sequence_content = "KLLPEYPGVLS [DHFR2_Y163]"
endpoint_value = 0.809

[[record]]
sequence_content = "INITIYGKTFH [EFHC1_Y177_R182H]"
endpoint_value = 0.781

[[record]]
sequence_content = "NGEDPYAGSTD [XRCC1_Y515]"
endpoint_value = 0.782


Ask: Any idea what its SH2 binding enrichment is? The sequence is LKYAIYFEARE [LAMA2_Y1258]
Reply: 0.793
